Cited source for all entries: the NIST ThermoML archive (doi:10.1021/je0503857)

# Condition Summary: 450 K; Liquid; Gas chromatography
Observable: vapor or sublimation pressure (kPa)

INSERT INTO assay_data (compound, observable, value_reported) VALUES
  ('CCCCCCCCCCCCCCCCCCCCO', 'vapor or sublimation pressure', 0.1382),
  ('CCCCCCCCCCCCCCCCCO', 'vapor or sublimation pressure', 0.571),
  ('CCCCCCCCCCC(O)CCCCCC (stereo not drawn)', 'vapor or sublimation pressure', 0.9282),
  ('CCCCCCCCCCCC(O)CCCCC (stereo not drawn)', 'vapor or sublimation pressure', 0.901);

A. CCCCCCCCC(O)CCCCCCCC
B. CCCCCCCCCCCCCCCCCCCCCCO
C. CC(C)CCC[C@@H](C)[C@H]1CC[C@H]2[C@@H]3CC=C4C[C@@H](O)CC[C@]4(C)[C@H]3CC[C@]12C
D. CCCCCCCCCCCCCCCCCCCCCCCCCCO
Exercise: Order each entry by recorded vapor or sublimation pressure, climbing from the minimum. As an answer, provide the labels arranged in the order called for.
Key: C, D, B, A

---

# Condition Summary: 330 K; Liquid; Gas chromatography
Observable: vapor or sublimation pressure (kPa)

Illustrative cases are given below, each with its answer.
INSERT INTO measurements (compound, measurement_units, value_reported) VALUES
  ('CCCCCCCCCCCCCCCCCO', 'kPa', '4.724e-05'),
  ('CCCCCCCCCCCCCCCCCCCCCCCCCCO', 'kPa', '1.78e-08'),
  ('CCCCCCCCCCCCCCCCCCCCO', 'kPa', '3.509e-06');

a. CCCCCCCCC(O)CCCCCCCC
b. CCCCCCCCCCCCCCCCCCCCCCO
Exercise: Recorded vapor or sublimation pressure values differ for a and b ; which one is higher? Give the chosen item's label as your response.
Key: a
(a: 0.0001127 kPa, b: 5.89e-07 kPa)

---

# Assay Explanation: molar heat capacity at constant pressure
# Condition Summary: 298.15 K; 101.33 kPa; Crystal; Small sample (50 mg) DSC
Observable: molar heat capacity at constant pressure (J/K/mol)

Study these solved cases before continuing.
INSERT INTO results (molecule, observable, value_reported) VALUES
  ('CCCCCCCCCCCCCCCCCO [1-heptadecanol]', 'molar heat capacity at constant pressure', 490.5),
  ('CCCCCCCCCCCCCC(O)CCC (centres undefined) [4-heptadecanol]', 'molar heat capacity at constant pressure', 472.6),
  ('CCCCCCCCCCCCCCCCCCO [1-octadecanol]', 'molar heat capacity at constant pressure', 517.4),
  ('CCCCCCCCCCCCCCCCCCCCO [1-eicosanol]', 'molar heat capacity at constant pressure', 571.2),
  ('CCCCCCCCCCC(O)CCCCCC (centres undefined) [7-heptadecanol]', 'molar heat capacity at constant pressure', 472.6),
  ('CCCCCCCCC(O)CCCCCCCC [9-heptadecanol]', 'molar heat capacity at constant pressure', 472.6),
  ('CCCCCCCCCCCCCCCCCCCCCCO [1-docosanol]', 'molar heat capacity at constant pressure', 625);

1. CCCCCCCCCCCC(O)CCCCC (centres undefined) [6-heptadecanol]
2. CCCCCCCCCCCCCCCCCCCCCCCCCCO [1-hexacosanol]
Exercise: Which of the two gives a bigger number for molar heat capacity at constant pressure: 1 or 2 ? Returns: label corresponding to the selected item.
Key: 2

---

# Condition Summary: 390 K; Liquid; Gas chromatography
Observable: vapor or sublimation pressure (kPa)

INSERT INTO assay_data (molecule, value_reported) VALUES
  ('CCCCCCCCCCC(O)CCCCCC (stereo not drawn)', 0.0273),
  ('CCCCCCCCCCCCCCCCCCCCCCO', 0.000588),
  ('CC(C)CCC[C@@H](C)[C@H]1CC[C@H]2[C@@H]3CC=C4C[C@@H](O)CC[C@]4(C)[C@H]3CC[C@]12C', '3.397e-05'),
  ('CCCCCCCCC(O)CCCCCCCC', 0.02704);

P. CCCCCCCCCCCC(O)CCCCC (stereo not drawn)
Q. CCCCCCCCCCCCCCCCCCCCCCCCCCO
R. CCCCCCCCCCCCCCCCCCCCO
S. CCCCCCCCCCCCCCCCCO
Exercise: rank_up(items): orders items by reported vapor or sublimation pressure in ascending numerical order. Please respond by ranking the labels in the order requested.
Key: Q, R, S, P

---

# Condition Summary: 480 K; Liquid; Gas chromatography
Observable: vapor or sublimation pressure (kPa)

1. CCCCCCCCCCCCCCCCCCCCO [1-eicosanol]
2. CCCCCCCCCCCCCCCCCCCCCCCCCCO [1-hexacosanol]
3. CCCCCCCCCCCCCCCCCO [1-heptadecanol]
4. CCCCCCCCCCC(O)CCCCCC (stereo not drawn) [7-heptadecanol]
Exercise: I'd appreciate it if you could rank the compounds mentioned above by vapor or sublimation pressure, largest value first. // list labels; follow requested order
Key: 4, 3, 1, 2

a. CCCCCCCCCCCC(O)CCCCC (stereo not drawn) [6-heptadecanol]
b. CC(C)CCC[C@@H](C)[C@H]1CC[C@H]2[C@@H]3CC=C4C[C@@H](O)CC[C@]4(C)[C@H]3CC[C@]12C [.DELTA.5-cholesten-3β-ol]
Exercise: Hey, between a and b which has a smaller measured vapor or sublimation pressure? Please reply using the label of the selected record.
Key: b

a. CCCCCCCCC(O)CCCCCCCC [9-heptadecanol]
b. CCCCCCCCCCCCCCCCCCCCCCO [1-docosanol]
Exercise: Which is greater in vapor or sublimation pressure, the first item a or the second item b ? Answer with the label corresponding to your selection.
Key: a
(a: 3.354 kPa, b: 0.2627 kPa)

---

# Condition Summary: 510 K; Liquid; Gas chromatography
Observable: vapor or sublimation pressure (kPa)

P. CCCCCCCCCCCCCCCCCCCCO
Q. CCCCCCCCCCCCCCCCCO
Exercise: Please state the entry with greater vapor or sublimation pressure among P and Q . // caller expects the label of the chosen entry
Key: Q

---

# Condition Summary: Crystal; DTA
Observable: Normal melting temperature (°C)

Illustrative cases are given below, each with its answer.
INSERT INTO assay_data (compound, observable, measurement_units, value_reported) VALUES
  ('CCCCCCCCCCCCCCCCCCCCO', 'Normal melting temperature', '°C', 64),
  ('CCCCCCCCCCCCCCCCCCCCCCCCCCO', 'Normal melting temperature', '°C', 80.0),
  ('CCCCCCCCCCCCCCCCCO', 'Normal melting temperature', '°C', 52.2),
  ('CCCCCCCCC(O)CCCCCCCC', 'Normal melting temperature', '°C', 57.1),
  ('CCCCCCCCCCCCCCCCCCO', 'Normal melting temperature', '°C', 52.5),
  ('CCCCCCCCCCC(O)CCCCCC (centres undefined)', 'Normal melting temperature', '°C', 41.2),
  ('CCCCCCCCCCCCCC(O)CCC (centres undefined)', 'Normal melting temperature', '°C', 38.4);

P. CCCCCCCCCCCCCCCCCCCCCCO
Q. CCCCCCCCCCCC(O)CCCCC (centres undefined)
Exercise: # return whichever of P and Q has the smaller Normal melting temperature Selection: enter the item's label.
Key: Q
(Q: 42.7 °C, P: 71.4 °C)

---

# Assay Explanation: Molar enthalpy of transition or fusion
# Condition Summary: Crystal; DSC
Observable: Molar enthalpy of transition or fusion (kcal/mol)

Completed entries (count: 3):
INSERT INTO assay_data (compound, measurement_units, value_reported) VALUES
  ('CCCCCCCCCCC(O)CCCCCC (stereo unspecified) [7-heptadecanol]', 'kcal/mol', 6.88),
  ('CCCCCCCCCCCCCCCCCCCCCCCCCCO [1-hexacosanol]', 'kcal/mol', 24.8),
  ('CCCCCCCCCCCCCC(O)CCC (stereo unspecified) [4-heptadecanol]', 'kcal/mol', 8.53);

a. CCCCCCCCCCCCCCCCCCCCCCO [1-docosanol]
b. CCCCCCCCCCCC(O)CCCCC (stereo unspecified) [6-heptadecanol]
Exercise: Hey, which is lower on measured Molar enthalpy of transition or fusion, a or b ? API: response body contains the label of the selected item.
Key: b
(b: 11.7 kcal/mol, a: 19.8 kcal/mol)

---

# Condition Summary: 360 K; Liquid; Gas chromatography
Observable: vapor or sublimation pressure (kPa)

// below: answered compounds
INSERT INTO results (compound, observable, measurement_units, value_reported) VALUES
  ('CCCCCCCCCCCCCCCCCCCCO', 'vapor or sublimation pressure', 'kPa', 0.0001228),
  ('CCCCCCCCCCC(O)CCCCCC (stereo not drawn)', 'vapor or sublimation pressure', 'kPa', 0.002406),
  ('CC(C)CCC[C@@H](C)[C@H]1CC[C@H]2[C@@H]3CC=C4C[C@@H](O)CC[C@]4(C)[C@H]3CC[C@]12C', 'vapor or sublimation pressure', 'kPa', '1.132e-06');

I. CCCCCCCCCCCCCCCCCO
II. CCCCCCCCCCCCCCCCCCCCCCCCCCO
III. CCCCCCCCCCCC(O)CCCCC (stereo not drawn)
IV. CCCCCCCCCCCCCCCCCCCCCCO
Exercise: rank_up(items): orders items by reported vapor or sublimation pressure in ascending numerical order. // rank by listing labels in the order requested
Key: II, IV, I, III
